tested.system: human cathepsin B (Homo sapiens)
Construct: enzyme prepared from human liver tissue; from tissue; host or cells: human liver
test.protocol: Cathepsin B inhibition, fluorogenic substrate Cbz-Phe-Arg-AMC, progress curve method
Assay type: biochemical
experimental.setup: Table 2, Inhibition of Cathepsins (Ki in nM); enzyme from human liver tissue, 10 μM substrate, pH 5.5; read-out: hCat B IC50
measurement.name: IC50

The compound identified as `CCCC[C@H](NC(=O)O[C@@H]1CN(c2nc3ccccc3s2)CC1(C)C)C(=O)CNS(=O)(=O)c1ccccn1` registered its IC50 at 1000 to 10000 nM

The compound identified as `C[C@H](NC(=O)O[C@H](Cn1cnc2cc(Cl)c(Cl)cc21)C(C)(C)C)C(=O)CNS(=O)(=O)c1ccccn1` registered its IC50 at 10 to 100 nM

src = patent US7288541B2
